These measurements were taken from paper PMC2756588.

Target: T1, Cyk3, Q07533
T1 sequence (Q07533 1-83, looked up): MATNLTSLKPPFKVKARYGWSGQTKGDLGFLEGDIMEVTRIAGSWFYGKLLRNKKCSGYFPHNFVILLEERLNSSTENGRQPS
Experiment: SPOT array
Conditions: median of control spots 1451
hey, just use True if measured SPOT intensity is less than 1, otherwise False

Worked examples follow.
TSIEIPKRSPLRFTS	True
ITHRLRISIPGITGR	True
FYHRPAPKPPVTKKV	True
YRRKSIPFAPHQITA	True
NRARYLPQNPDIIAG	True
TTNRGPPPLPPRANV	True
ISRRRLPVIMHRLKM	True
PSTMDFPKLPSFQNS	False

Does the reported SPOT intensity of PALPSLPPPPLLNVD stay below 1? True

Now give it for HAPPLPPTAPPPPSL too. True
